- TARGET_OF_ASSAY: T1, soluble human FcRn (shFcRn) (human, UniProt P55899 24-297; P61769 21-119)
- T1 construct: Biotinylated for the ELISA, amine-coupled to a CM5 chip for SPR; also called biotinylated shFcRn
- TEST: SPR pH 7.4
Bridge positions count the residues as written; N and C are the ends. Square brackets hold non-standard residues; d marks the D form. Ends that are not written are not given here. Phe(4-amidino) = N=C(N)c1ccc(C[C@H](N)C(=O)O)cc1; Phe(4-NH2) = Nc1ccc(C[C@H](N)C(=O)O)cc1; His(Me) = mono-methylated histidine; NMeL = CN[C@@H](CC(C)C)C(=O)O; Pen = CC(C)(S)[C@H](N)C(=O)O; Sar = CNCC(=O)O
We label by threshold. Values of Kd strictly beneath 400 nM are rule met. Values of 400 nM and up are rule not met.

| BINDER | CATEGORY_LABEL |
| --- | --- |
| RF[Pen]TGRFG[Sar][NMeL]YPC-NH2 (disulfide 3-13; N-terminus assumed; SMILES CC(C)C[C@H]1C(=O)N[C@@H](Cc2ccc(O)cc2)C(=O)N2CCC[C@H]2C(=O)N[C@H](C(N)=O)CSSC(C)(C)[C@H](NC(=O)[C@H](Cc2ccccc2)NC(=O)[C@@H](N)CCCNC(=N)N)C(=O)N[C@@H]([C@@H](C)O)C(=O)NCC(=O)N[C@@H](CCCNC(=N)N)C(=O)N[C@@H](Cc2ccccc2)C(=O)NCC(=O)N(C)CC(=O)N1C) [Peptide No. 256] | rule not met |
| RF[Pen]TG[His(Me)]FGGLYPC-NH2 (disulfide 3-13) [Peptide No. 259] | rule met |
| RF[Pen]TG[His(Me)2]FGGLYPC-NH2 (disulfide 3-13) [Peptide No. 260] | rule not met |
| RF[Pen]TG[Phe(4-NH2)]FG[Sar][NMeL]YPC-NH2 (disulfide 3-13; N-terminus assumed; SMILES CC(C)C[C@H]1C(=O)N[C@@H](Cc2ccc(O)cc2)C(=O)N2CCC[C@H]2C(=O)N[C@H](C(N)=O)CSSC(C)(C)[C@H](NC(=O)[C@H](Cc2ccccc2)NC(=O)[C@@H](N)CCCNC(=N)N)C(=O)N[C@@H]([C@@H](C)O)C(=O)NCC(=O)N[C@@H](Cc2ccc(N)cc2)C(=O)N[C@@H](Cc2ccccc2)C(=O)NCC(=O)N(C)CC(=O)N1C) [Peptide No. 258] | rule not met |

Does the reported Kd of the following binder sit strictly below 400 nM? RF[Pen]TG[Phe(4-amidino)]FG[Sar][NMeL]YPC-NH2 (disulfide 3-13; N-terminus assumed; SMILES CC(C)C[C@H]1C(=O)N[C@@H](Cc2ccc(O)cc2)C(=O)N2CCC[C@H]2C(=O)N[C@H](C(N)=O)CSSC(C)(C)[C@H](NC(=O)[C@H](Cc2ccccc2)NC(=O)[C@@H](N)CCCNC(=N)N)C(=O)N[C@@H]([C@@H](C)O)C(=O)NCC(=O)N[C@@H](Cc2ccc(C(=N)N)cc2)C(=O)N[C@@H](Cc2ccccc2)C(=O)NCC(=O)N(C)CC(=O)N1C) [Peptide No. 257] rule met
